- TEST: DPPH free radical scavenging activity assay
- CONDITION: 0.1 mM DPPH in ethanol, 30 min, 517 nm; mean ± S.E.M (n = 3); read-out: DPPH inhibition activity IC50
Task for the reader: assign each of the following molecules its reported pIC50.
Numbers only, as −log10 of the molar value.

Worked examples, 2 molecules total:
>>> number("COc1cc(O)cc(CCCCCCCCCCCCCCc2cc(O)cc(O)c2)c1")
4.43
>>> number("Oc1cc2cc(c1)Oc1c(O)cc(cc1O)CCCCCCCC=CCCCCC2 [Compound 8, dehydrobustol-A]")
4.93

Now for another entry.
Need pIC50, item COc1cc(O)cc2c1-c1c(O)cc(cc1O)CCCCCCCC=CCCCCC2 [Compound 12, methyldehydrograviphane] 4.80
